ASSAY_TARGET: Human C3 (Complement tech cat #A113c) (human, UniProt P01024 23-1663)
Sequence (P01024 23-1663 limits assumed): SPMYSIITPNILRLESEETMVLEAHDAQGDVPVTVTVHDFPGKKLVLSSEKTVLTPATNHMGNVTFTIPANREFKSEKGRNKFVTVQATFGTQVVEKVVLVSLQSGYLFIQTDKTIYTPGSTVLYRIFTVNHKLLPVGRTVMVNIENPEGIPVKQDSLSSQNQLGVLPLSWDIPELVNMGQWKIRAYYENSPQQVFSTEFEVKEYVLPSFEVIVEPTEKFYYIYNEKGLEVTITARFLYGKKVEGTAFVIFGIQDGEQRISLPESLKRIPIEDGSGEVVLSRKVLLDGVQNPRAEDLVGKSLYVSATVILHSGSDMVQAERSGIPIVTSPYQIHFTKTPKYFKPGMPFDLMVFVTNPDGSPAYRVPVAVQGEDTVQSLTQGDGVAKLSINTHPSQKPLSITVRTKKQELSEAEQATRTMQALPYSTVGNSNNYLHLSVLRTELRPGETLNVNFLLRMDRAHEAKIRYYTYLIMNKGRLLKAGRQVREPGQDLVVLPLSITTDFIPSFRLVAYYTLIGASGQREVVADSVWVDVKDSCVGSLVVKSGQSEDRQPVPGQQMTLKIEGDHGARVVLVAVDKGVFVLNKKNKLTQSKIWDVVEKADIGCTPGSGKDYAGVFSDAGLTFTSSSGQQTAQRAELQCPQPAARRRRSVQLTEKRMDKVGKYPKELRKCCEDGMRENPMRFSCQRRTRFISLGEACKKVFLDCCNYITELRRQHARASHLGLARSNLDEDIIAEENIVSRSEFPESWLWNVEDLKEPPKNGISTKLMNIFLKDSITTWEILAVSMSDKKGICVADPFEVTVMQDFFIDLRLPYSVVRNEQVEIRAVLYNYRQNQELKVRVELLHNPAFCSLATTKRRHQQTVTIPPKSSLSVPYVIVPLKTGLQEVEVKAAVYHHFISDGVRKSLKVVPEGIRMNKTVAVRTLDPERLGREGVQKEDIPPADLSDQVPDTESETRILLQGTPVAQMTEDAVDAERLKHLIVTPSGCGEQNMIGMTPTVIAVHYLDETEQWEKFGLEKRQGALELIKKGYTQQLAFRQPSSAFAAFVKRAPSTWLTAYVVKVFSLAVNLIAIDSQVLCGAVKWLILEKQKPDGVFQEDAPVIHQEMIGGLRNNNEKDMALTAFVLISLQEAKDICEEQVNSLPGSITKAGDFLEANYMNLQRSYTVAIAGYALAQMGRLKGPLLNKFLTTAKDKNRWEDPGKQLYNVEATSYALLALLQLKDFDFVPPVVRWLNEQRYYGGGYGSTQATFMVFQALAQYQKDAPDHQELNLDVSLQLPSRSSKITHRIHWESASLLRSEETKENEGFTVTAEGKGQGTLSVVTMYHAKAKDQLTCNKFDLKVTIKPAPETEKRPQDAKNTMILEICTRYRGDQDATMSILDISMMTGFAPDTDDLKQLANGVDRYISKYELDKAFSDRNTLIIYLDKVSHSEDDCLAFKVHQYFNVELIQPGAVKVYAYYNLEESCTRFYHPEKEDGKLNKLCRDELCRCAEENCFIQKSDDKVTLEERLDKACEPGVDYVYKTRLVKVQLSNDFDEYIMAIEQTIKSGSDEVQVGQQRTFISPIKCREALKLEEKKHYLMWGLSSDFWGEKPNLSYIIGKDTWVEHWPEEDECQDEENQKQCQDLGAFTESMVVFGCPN
PROTOCOL: cell-based or functional assay
Positions of bridges follow the written chain, without caps; N, C: chain ends. Non-standard residues stand in square brackets, D forms with d. β3hI = CC[C@H](C)[C@H](N)CC(=O)O; Nle = CCCC[C@H](N)C(=O)O; Nva = CCC[C@H](N)C(=O)O
IC50, CP hemolysis for assorted binders
OUTCOME_MEASURE: IC50, CP hemolysis (nM)

binder="Ac-IC[Nva]WQDWGEHRCT-NH2 (disulfide 2-12; SMILES CCC[C@@H]1NC(=O)[C@@H](NC(=O)[C@@H](NC(C)=O)[C@@H](C)CC)CSSC[C@@H](C(=O)N[C@H](C(N)=O)[C@@H](C)O)NC(=O)[C@H](CCCNC(=N)N)NC(=O)[C@H](Cc2c[nH]cn2)NC(=O)[C@H](CCC(=O)O)NC(=O)CNC(=O)[C@H](Cc2c[nH]c3ccccc23)NC(=O)[C@H](CC(=O)O)NC(=O)[C@H](CCC(N)=O)NC(=O)[C@H](Cc2c[nH]c3ccccc23)NC1=O) [Ac-IC(1)XWQDWGEHRC(1)T-NH2 with Norvaline at position 3]" limit_sign=> reported_value=1000
binder="Ac-IC[Nle]WQDWGEHRCT-NH2 (disulfide 2-12; SMILES CCCC[C@@H]1NC(=O)[C@@H](NC(=O)[C@@H](NC(C)=O)[C@@H](C)CC)CSSC[C@@H](C(=O)N[C@H](C(N)=O)[C@@H](C)O)NC(=O)[C@H](CCCNC(=N)N)NC(=O)[C@H](Cc2c[nH]cn2)NC(=O)[C@H](CCC(=O)O)NC(=O)CNC(=O)[C@H](Cc2c[nH]c3ccccc23)NC(=O)[C@H](CC(=O)O)NC(=O)[C@H](CCC(N)=O)NC(=O)[C@H](Cc2c[nH]c3ccccc23)NC1=O) [Ac-IC(1)XWQDWGEHRC(1)T-NH2 with Norleucine at position 3]" limit_sign== reported_value=480
binder="Ac-IC[β3hI]WQDWGEHRCT-NH2 (disulfide 2-12) [Ac-IC(1)XWQDWGEHRC(1)T-NH2 with Beta-Homo-Isoleucine at position 3]" limit_sign=> reported_value=10000
binder="Ac-ICIWQDWGEHRCT-NH2 (disulfide 2-12; SMILES CC[C@H](C)[C@H](NC(C)=O)C(=O)N[C@H]1CSSC[C@@H](C(=O)N[C@H](C(N)=O)[C@@H](C)O)NC(=O)[C@H](CCCNC(=N)N)NC(=O)[C@H](Cc2c[nH]cn2)NC(=O)[C@H](CCC(=O)O)NC(=O)CNC(=O)[C@H](Cc2c[nH]c3ccccc23)NC(=O)[C@H](CC(=O)O)NC(=O)[C@H](CCC(N)=O)NC(=O)[C@H](Cc2c[nH]c3ccccc23)NC(=O)[C@H]([C@@H](C)CC)NC1=O) [Compound 2]" limit_sign=< reported_value=100
binder="Ac-ICVWQDWGEHRCT-NH2 (disulfide 2-12; SMILES CC[C@H](C)[C@H](NC(C)=O)C(=O)N[C@H]1CSSC[C@@H](C(=O)N[C@H](C(N)=O)[C@@H](C)O)NC(=O)[C@H](CCCNC(=N)N)NC(=O)[C@H](Cc2c[nH]cn2)NC(=O)[C@H](CCC(=O)O)NC(=O)CNC(=O)[C@H](Cc2c[nH]c3ccccc23)NC(=O)[C@H](CC(=O)O)NC(=O)[C@H](CCC(N)=O)NC(=O)[C@H](Cc2c[nH]c3ccccc23)NC(=O)[C@H](C(C)C)NC1=O) [Compound A]" limit_sign== reported_value=350
